assay: AUClast in Sprague-Dawley rat at 1 mg/kg, iv measured upto 24 hrs by LC-MS/MS analysis; type: ADME, organism-based; set-up: route intravenous, dose 1 mg/kg, time <=24; details: in vivo
Property: AUC(0-t) at 24 h (µM·h)

>>> result("C[C@H](Nc1nc(N)nc(N)c1C#N)c1c(-c2ccccc2)c(=O)n2cc(F)ccc2c1-c1ccc(F)cc1")
11

---

test: Plasma concentration in CB.17 SCID mouse xenografted with TMD-8 cells at 10 mg/kg, po once daily for 19 days; assay type: ADME, organism-based; conditions: time 19 day
Property: concentration at 456 h (nM)

>>> result("C[C@H](Nc1nc(N)nc(N)c1C#N)c1c(-c2ccccc2)c(=O)n2cc(F)ccc2c1-c1ccc(F)cc1")
2670

---

test: AUClast in BALB/C mouse at 10 mg/kg, iv measured upto 24 hrs by LC-MS analysis; assay type: ADME, organism-based; set-up: route intravenous, dose 10 mg/kg, time <= 24; settings: in vivo
Reported AUC(0-t) at 24 h values are given for each entry in this list.
Property: AUC(0-t) at 24 h (µM·h)

>>> result("CC[C@H](Nc1ncnc2[nH]cnc12)c1nc2cccc(F)c2c(=O)n1-c1ccccc1")
7.43
>>> result("C[C@H](Nc1ncnc2[nH]cnc12)c1nc2cccc(Cl)c2c(=O)n1-c1ccccc1")
4.55

---

assay: Cmax in Beagle dog at 1 mg/kg, iv measured upto 24 hrs by LC-MS/MS analysis; format: ADME, organism-based, Canis lupus familiaris; set-up: route intravenous, dose 1 mg/kg, time <=24; conditions: in vivo
Property: Cmax (nM)

>>> result("C[C@H](Nc1ncnc2[nH]cnc12)c1nc2cccc(Cl)c2c(=O)n1-c1ccccc1")
1200

---

assay: Tmax in Sprague-Dawley rat at 3 mg/kg, iv measured upto 24 hrs by LC-MS/MS analysis; format: ADME, organism-based; conditions: in vivo
Property: Tmax (min)

>>> result("CC[C@H](Nc1ncnc2[nH]cnc12)c1nc2cccc(F)c2c(=O)n1-c1ccccc1 [IDELALISIB]")
4.8

---

assay: Tmax in Sprague-Dawley rat at 2 mg/kg, iv measured upto 24 hrs by LC-MS/MS analysis; type: ADME, organism-based; details: in vivo
Property: Tmax (min)

>>> result("C[C@H](Nc1ncnc2[nH]cnc12)c1nc2cccc(Cl)c2c(=O)n1-c1ccccc1")
4.98

---

test: Cmax in Sprague-Dawley rat at 3 mg/kg, iv measured upto 24 hrs by LC-MS/MS analysis; assay type: ADME, organism-based; design: route intravenous, dose 3 mg/kg, time <=24; conditions: in vivo
Property: Cmax (µM)

>>> result("CC[C@H](Nc1ncnc2[nH]cnc12)c1nc2cccc(F)c2c(=O)n1-c1ccccc1")
3.46

---

Reported logD values are given for each entry in this list.
test: Lipophilicity, log D of compound at pH 7.4; type: physicochemical; conditions: buffer
Property: logD

>>> result("C[C@H](Nc1nc(N)nc(N)c1C#N)c1cc2ccc(F)cn2c(=O)c1-c1ccccc1")
1.26
>>> result("C[C@H](Nc1nc(N)nc(N)c1C#N)c1c(-c2ccccc2)c(=O)n2cc(F)ccc2c1-c1ccccc1")
2.49
>>> result("C[C@H](Nc1nc(N)nc(N)c1C#N)c1cc(=O)n2cc(F)ccc2c1-c1cc(F)cc(F)c1")
1.88
>>> result("C[C@H](Nc1nc(N)nc(N)c1C#N)c1c(-c2ccccc2)c(=O)n2cc(F)ccc2c1-c1ccc(F)cc1")
2.38
>>> result("Cc1nc(N)nc(N[C@@H](C)c2c(-c3ccccc3)c(=O)n3cc(F)ccc3c2-c2ccc(F)cc2)c1C#N")
3.26
